Molecular target: T1, wild-type human Ang-2 (hAng-2-WT) (human, UniProt O15123 19-496)
T1 construct: called full-length wild-type; also called Full-length wild-type human Ang-2
T1 sequence: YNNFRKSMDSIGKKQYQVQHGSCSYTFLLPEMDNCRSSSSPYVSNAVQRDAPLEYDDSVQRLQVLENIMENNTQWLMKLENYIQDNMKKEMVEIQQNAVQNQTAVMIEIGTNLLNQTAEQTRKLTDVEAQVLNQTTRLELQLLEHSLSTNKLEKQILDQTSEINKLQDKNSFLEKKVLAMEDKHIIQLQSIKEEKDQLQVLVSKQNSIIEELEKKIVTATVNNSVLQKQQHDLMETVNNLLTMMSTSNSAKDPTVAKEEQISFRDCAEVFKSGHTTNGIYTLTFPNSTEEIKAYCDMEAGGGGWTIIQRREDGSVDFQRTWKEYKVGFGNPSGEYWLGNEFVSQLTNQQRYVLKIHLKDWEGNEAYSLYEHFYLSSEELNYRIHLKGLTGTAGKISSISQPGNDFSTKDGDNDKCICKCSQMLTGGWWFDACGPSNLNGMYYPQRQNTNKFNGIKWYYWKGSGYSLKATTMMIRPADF
Assay: SPR, captured Ab
measure: T1/2

QUERY: Fill blank: measured T1/2 of the binder H1H728N (antibody, V domains shown) VH: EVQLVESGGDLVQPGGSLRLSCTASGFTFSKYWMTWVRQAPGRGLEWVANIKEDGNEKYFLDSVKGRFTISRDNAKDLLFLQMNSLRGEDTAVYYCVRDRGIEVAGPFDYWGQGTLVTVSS VL: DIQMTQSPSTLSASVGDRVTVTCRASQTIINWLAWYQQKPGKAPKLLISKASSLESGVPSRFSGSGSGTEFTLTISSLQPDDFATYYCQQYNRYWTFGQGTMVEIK is ____.
RESULT: 9.43 h

QUERY: H1M728N (antibody, V domains shown) VH: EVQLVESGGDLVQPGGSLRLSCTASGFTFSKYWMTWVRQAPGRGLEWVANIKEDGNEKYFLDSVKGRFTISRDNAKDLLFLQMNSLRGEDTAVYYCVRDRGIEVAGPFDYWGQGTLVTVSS VL: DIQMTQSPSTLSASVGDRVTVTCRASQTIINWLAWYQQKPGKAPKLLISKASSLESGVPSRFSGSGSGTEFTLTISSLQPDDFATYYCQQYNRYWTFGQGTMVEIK ?
RESULT: 12.1 h

QUERY: Another binder to look at: H2M743N (antibody, V domains shown) VH: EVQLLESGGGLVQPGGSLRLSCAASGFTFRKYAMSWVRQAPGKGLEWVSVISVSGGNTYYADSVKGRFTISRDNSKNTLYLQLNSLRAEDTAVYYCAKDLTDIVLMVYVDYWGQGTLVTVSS VL: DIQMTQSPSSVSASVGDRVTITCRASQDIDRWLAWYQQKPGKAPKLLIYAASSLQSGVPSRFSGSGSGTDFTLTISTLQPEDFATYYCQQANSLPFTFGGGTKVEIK
RESULT: 39.4 h
